Cited source: ChEMBL document CHEMBL5236635

biological target: Cytochrome P450 1A2 (Homo sapiens, UniProt P05177); assay: Inhibition of recombinant human CYP1A2 using 7-ethyl-0-resorufin as substrate incubated for 30 mins in presence of NADPH by EROD assay
Sequence (P05177 whole entry): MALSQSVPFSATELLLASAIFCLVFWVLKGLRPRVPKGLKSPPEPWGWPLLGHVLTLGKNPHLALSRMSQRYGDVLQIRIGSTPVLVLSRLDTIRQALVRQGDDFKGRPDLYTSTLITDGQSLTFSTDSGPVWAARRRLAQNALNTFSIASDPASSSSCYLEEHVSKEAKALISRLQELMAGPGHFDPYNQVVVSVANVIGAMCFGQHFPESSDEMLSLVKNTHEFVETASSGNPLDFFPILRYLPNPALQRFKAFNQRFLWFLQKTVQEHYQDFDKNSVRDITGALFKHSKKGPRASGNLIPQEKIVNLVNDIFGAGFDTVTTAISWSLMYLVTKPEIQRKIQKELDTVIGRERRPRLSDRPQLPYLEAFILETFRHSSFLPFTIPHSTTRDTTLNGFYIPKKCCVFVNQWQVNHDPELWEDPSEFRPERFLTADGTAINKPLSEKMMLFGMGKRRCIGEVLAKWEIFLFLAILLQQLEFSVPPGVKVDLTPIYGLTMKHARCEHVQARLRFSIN
parameter measured: pIC50
FYI, pIC50 means -log10 of a concentration in mol per litre.

Recorded results for 5 compounds are shown here.
c1cn(Cc2ccc(Nc3nc(-c4nccs4)cs3)cc2)cn1 : 7.31
Fc1cc(Cl)ccc1-c1csc(-c2csc(Nc3ccc(N4CCOCC4)cc3)n2)n1 : 6.00
c1cncc(-c2csc(-c3csc(Nc4ccc(N5CCOCC5)cc4)n3)n2)c1 : 5.59
COc1ccc(-c2csc(-c3csc(Nc4cccc(F)c4)n3)n2)cc1OC : 7.50
Fc1ccc(-c2csc(-c3csc(Nc4ccc(N5CCOCC5)cc4)n3)n2)cc1 : 5.81

Data request, read-out pIC50, for Fc1ccccc1-c1csc(-c2csc(Nc3ccc(N4CCOCC4)cc3)n2)n1 5.30

I'd like to know its pIC50. The compound in question is C#CCOc1ccccc1-c1csc(-c2csc(Nc3cccc(F)c3)n2)n1 5.98

What does the data say about its pIC50? Entry: Cc1sc(-c2csc(Nc3cccc(F)c3)n2)nc1-c1ccncc1 6.64

Give the measured pIC50 of c1csc(-c2csc(Nc3ccc(N4CCOCC4)cc3)n2)n1 . 5.73

Name the recorded pIC50 for Clc1cc(Nc2nc(-c3nccs3)cs2)cc(Cl)c1Cl . 6.32

====

The following molecules are shown together with reported selectivity ratio values.
test system: CYP1A1 versus CYP1B1; test: Selectivity index, ratio of IC50 for inhibition of recombinant human CYP1A1 to IC50 for inhibition of recombinant human CYP1B1; details: recombinant human CYP1A1 and recombinant human CYP1B1
Give a plain numeric answer without units written out.

Illustrative cases are given below, each with its answer.
C#CCOc1ccccc1-c1csc(-c2csc(Nc3cccc(F)c3)n2)n1 : 5.64
COc1ccc(-c2csc(-c3csc(Nc4cccc(F)c4)n3)n2)cc1OC : 0.37
Fc1ccccc1-c1csc(-c2csc(Nc3ccc(N4CCOCC4)cc3)n2)n1 : 8.48
Clc1cc(Cl)cc(Nc2nc(-c3nc(-c4ccccn4)cs3)cs2)c1 : 20.4
C#CCOc1ccccc1-c1csc(-c2csc(Nc3cc(OC)cc(OC)c3)n2)n1 : 3.49

Any idea what selectivity ratio was measured for COc1cccc(-c2csc(-c3csc(Nc4ccc(N5CCOCC5)cc4)n3)n2)c1 ? 11.7

I'd like to know its selectivity ratio. The molecule in question is c1cc(-c2csc(-c3csc(Nc4ccc(N5CCOCC5)cc4)n3)n2)ccn1 29.2

Item CCc1sc(-c2csc(Nc3cc(OC)cc(OC)c3)n2)nc1-c1ccccc1 has what recorded selectivity ratio? 56.3

Fill in: selectivity ratio of Cc1sc(-c2csc(Nc3cccc(F)c3)n2)nc1-c1ccncc1 is ___ 1.43

May I ask what selectivity ratio has been recorded for c1ccc(-c2csc(-c3csc(Nc4ccc(N5CCOCC5)cc4)n3)n2)nc1 ? 3.71

I am curious: what selectivity ratio value has been reported for COc1cc(Nc2nc(-c3nc(-c4ccccc4Cl)cs3)cs2)cc(OC)c1 ? 40

Give its selectivity ratio value. Item: Cc1sc(-c2csc(Nc3cc(Cl)cc(Cl)c3)n2)nc1-c1ccccc1 13.5

====

biological target: Cytochrome P450 1A1 (Homo sapiens, UniProt P04798); assay: Inhibition of recombinant human CYP1A1 using 7-ethyl-0-resorufin as substrate incubated for 30 mins in presence of NADPH by EROD assay
Sequence (P04798 whole entry): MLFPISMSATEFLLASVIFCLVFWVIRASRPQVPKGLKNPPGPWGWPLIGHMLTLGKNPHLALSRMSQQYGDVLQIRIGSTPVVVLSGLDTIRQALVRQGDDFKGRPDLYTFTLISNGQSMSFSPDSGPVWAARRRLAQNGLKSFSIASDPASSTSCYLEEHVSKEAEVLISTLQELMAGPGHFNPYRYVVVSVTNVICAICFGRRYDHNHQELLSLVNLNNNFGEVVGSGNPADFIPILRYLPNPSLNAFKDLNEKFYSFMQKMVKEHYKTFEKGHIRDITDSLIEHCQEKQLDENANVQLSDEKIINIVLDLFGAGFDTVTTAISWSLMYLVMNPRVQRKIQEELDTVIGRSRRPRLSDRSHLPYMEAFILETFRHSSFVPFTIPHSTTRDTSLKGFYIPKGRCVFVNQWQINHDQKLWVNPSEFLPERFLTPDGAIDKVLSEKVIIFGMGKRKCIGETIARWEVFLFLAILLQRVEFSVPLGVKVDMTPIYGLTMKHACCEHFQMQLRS
The compounds listed here are annotated with their IC50.

Record excerpt, results attached:
Fc1cccc(Nc2nc(-c3nc(-c4ccc(Cl)cc4F)cs3)cs2)c1 : > 10000 nM
Fc1cc(Cl)ccc1-c1csc(-c2csc(Nc3ccc(N4CCOCC4)cc3)n2)n1 : > 10000 nM
Fc1cccc(Nc2nc(-c3nc(-c4ccccc4)c(-c4ccccc4)s3)cs2)c1 : 6780 nM
COc1cccc(Nc2nc(-c3nccs3)cs2)c1 : 414 nM
c1ccc(-c2csc(-c3csc(Nc4ccc(N5CCOCC5)cc4)n3)n2)nc1 : 47.9 nM
c1csc(-c2csc(Nc3ccc4c(c3)OCO4)n2)n1 : 93 nM

What value of IC50 on Cytochrome P450 1A1 (Homo sapiens, UniProt P04798) does COc1cc(Nc2nc(-c3nc(-c4cccc(F)c4)cs3)cs2)cc(OC)c1 have? 820 nM

API: value(readout=IC50, system=Cytochrome P450 1A1 (Homo sapiens, UniProt P04798)) for record Fc1ccc(Nc2nc(-c3nccs3)cs2)cc1 957 nM
